test method notes: qHTS drug screen for cell cycle checkpoint inhibitors in PARPi-resistant BRCA-mutant ovarian cancer cell lines. (AID 1963452)
run parameters: PEO1/OlaR viability, CellTiter-Glo luminescence, 96 h; measured here: PEO1 parental Z-AUC; stronger effect = lower value
Where a SMILES comes first, the peptide text is derived from it. [ ]: non-standard residue; d: D form. Dip = N[C@H](C(=O)O)C(c1ccccc1)c1ccccc1
Label key: 1 means Z-AUC under 0.5; -1 means Z-AUC of 0.5 or more.

{"compound": "Cc1cc2c(F)c(Oc3ncnn4cc(OC[C@@H](C)OC(=O)[C@H](C)N)c(C)c34)ccc2[nH]1", "label": -1}
{"compound": "COc1ncc(Nc2ncc(C(C)N3CCN(S(C)(=O)=O)CC3)cc2-c2nc(C)nc(N)n2)cc1F (stereo unspecified)", "label": -1}
{"compound": "NCCCC[C@H](NC(=O)[C@@H](NC(=O)[C@H](Cc1c[nH]c2ccccc12)NC(=O)[C@H](CCCCN)NC(=O)[C@H](CCCCN)NC(=O)[C@H](Cc1c[nH]c2ccccc12)NC(=O)[C@H](Cc1c[nH]c2ccccc12)NC(=O)[C@H](CCCCN)NC(=O)[C@@H](N)CCCCN)C(c1ccccc1)c1ccccc1)C(N)=O (H-KKWWKKW[Dip]K-NH2)", "label": -1}
{"compound": "C[C@]1(C(=O)N(CCCC(=O)O)Cc2cccc(Cl)c2)CCN1C(=O)c1csc2ccccc12", "label": -1}
{"compound": "C=CC(=O)N1CC[C@@H](Oc2nc(Nc3ccc(N4CCC(N5CCN(C)CC5)CC4)cc3)c(C(N)=O)nc2CC)C1", "label": 1}
{"compound": "c1ccc2c(-c3cnn4cc(-c5ccc(OCCN6CCOCC6)cc5)cnc34)ccnc2c1", "label": 1}

----------
experimental target: Cytochrome P450 2D6 (Homo sapiens)
test method notes: Cytochrome P450 family 2 subfamily D member 6 (CYP2D6) small molecule antagonists: luciferase biochemical (cell-free) qHTS assay (AID 1645840); further: nearly all actives have a fitted effect of over 55% in size
run parameters: P450-Glo CYP2D6 enzyme, luciferin luminescence, 1 h; series mostly up to 57.4 µM
Results filed as inconclusive are left out. The source made the active and inactive calls. The call rests on the fitted dose curve; in most records, active means well fitted inhibition curve with a large enough effect in the repeat runs; inconclusive means weak or mixed curves; inactive means flat fitted curve, though single readings scatter.
Classes used: 1 (yes) = active, 0 (no) = inactive

{"compound": "Cc1c(Cl)cccc1NC(=O)Cn1cc(C(=O)C2CCCCC2)c2ccccc21", "experimental target": "Cytochrome P450 2D6 (Homo sapiens)", "label": "1 (yes)"}
{"compound": "CC(C)CCn1c(CN2CCN(C(=O)C(C)C)CC2)nc2c1c(=O)n(C)c(=O)n2C", "experimental target": "Cytochrome P450 2D6 (Homo sapiens)", "label": "0 (no)"}
{"compound": "O=C(NCc1ccco1)c1ccc2c(c1)N(Cc1cccc(Cl)c1)C(=O)c1ccccc1S2=O (centres undefined)", "experimental target": "Cytochrome P450 2D6 (Homo sapiens)", "label": "1 (yes)"}
{"compound": "CC(=O)C1(O)Cc2c(O)c3c(c(O)c2C(OC2CC(N)C(O)C(C)O2)C1)C(=O)c1ccccc1C3=O (centres undefined)", "experimental target": "Cytochrome P450 2D6 (Homo sapiens)", "label": "1 (yes)"}
{"compound": "CCc1ccc(-n2c(SCc3cccc(F)c3)nc3[nH]ncc3c2=O)cc1", "experimental target": "Cytochrome P450 2D6 (Homo sapiens)", "label": "1 (yes)"}
{"compound": "O=C(CC1N=C2c3ccccc3N=C(SCc3ccc(F)cc3)N2C1=O)NC1CCCCC1 (centres undefined)", "experimental target": "Cytochrome P450 2D6 (Homo sapiens)", "label": "1 (yes)"}
{"compound": "CCOC(=O)N1CCc2c(sc3c2c(=O)n(Cc2ccccc2)c(=O)n3CC(=O)Nc2ccc(F)cc2)C1", "experimental target": "Cytochrome P450 2D6 (Homo sapiens)", "label": "1 (yes)"}
{"compound": "C[C@H]1[C@@H](OC(=O)CCC(=O)O)O[C@@H]2O[C@]3(C)CC[C@H]4[C@H](C)CC[C@@H]1[C@@]24OO3", "experimental target": "Cytochrome P450 2D6 (Homo sapiens)", "label": "0 (no)"}
{"compound": "Cc1onc(-c2ccccc2Cl)c1C(=O)Cl", "experimental target": "Cytochrome P450 2D6 (Homo sapiens)", "label": "0 (no)"}
{"compound": "CCOc1ccc(CNC(=O)Cn2c(=O)c3cccn3c3ccc(F)cc32)cc1OC", "experimental target": "Cytochrome P450 2D6 (Homo sapiens)", "label": "0 (no)"}
{"compound": "Nc1nc(Nc2ccc3c(c2)CC[C@@H](N2CCCC2)CC3)nn1-c1cc2c(nn1)-c1ccccc1CCC2", "experimental target": "Cytochrome P450 2D6 (Homo sapiens)", "label": "1 (yes)"}
{"compound": "Cc1ccc(C(=O)c2cn(CC(=O)Nc3ccc4c(c3)OCCO4)c3nc(C)ccc3c2=O)cc1", "experimental target": "Cytochrome P450 2D6 (Homo sapiens)", "label": "0 (no)"}
{"compound": "O=C(Cn1c(=O)n(-c2ccc(Cl)cc2)c(=O)c2oc3ccccc3c21)Nc1ccccc1", "experimental target": "Cytochrome P450 2D6 (Homo sapiens)", "label": "1 (yes)"}
{"compound": "COc1ccc(NC(=O)CSc2nc(-c3cccs3)cc(C(F)(F)F)n2)cc1OC", "experimental target": "Cytochrome P450 2D6 (Homo sapiens)", "label": "0 (no)"}
{"compound": "Cc1cccc(NC(c2ccccc2F)c2ccc3ccc(C)nc3c2O)n1 (centres undefined)", "experimental target": "Cytochrome P450 2D6 (Homo sapiens)", "label": "0 (no)"}
{"compound": "CCc1ccc(-n2c(SCc3ccccc3F)nc3[nH]ncc3c2=O)cc1", "experimental target": "Cytochrome P450 2D6 (Homo sapiens)", "label": "1 (yes)"}
{"compound": "CN1N=C(N)c2cn([C@@H]3O[C@H](COP(=O)(O)O)[C@@H](O)[C@H]3O)c3ncnc1c23", "experimental target": "Cytochrome P450 2D6 (Homo sapiens)", "label": "0 (no)"}
{"compound": "CC1CCCCC1N(Cc1ccccc1)[S+](=O)([O-])c1ccc([S+](=O)([O-])N(C)C)cc1 (centres undefined)", "experimental target": "Cytochrome P450 2D6 (Homo sapiens)", "label": "0 (no)"}
{"compound": "Cc1cccc(Cn2c(SCc3ccc(C(=O)N4CCC(C)CC4)cc3)nc3ccncc32)c1", "experimental target": "Cytochrome P450 2D6 (Homo sapiens)", "label": "1 (yes)"}
